The measurements presented in this section are drawn from PubChem BioAssay (NCI).

System: NCI-H460 lung
Experiment: NCI-60 one-dose screen, 48 h
Conditions: 10 µM unless noted
The panel holds about 83,000 compounds, 20% with a hit somewhere; the sample as a whole holds those more often. Activity calls are given as the source filed them. Rule for the calls: active = growth percent below 10; inactive = the rest.
Valid outcomes are listed here; reply with one: active, inactive

>  <molSmiles>
C[C@H]1[C@H](C)CC[C@]2(COC(=O)CCC(=O)O)CC[C@]3(C)C(=CC[C@@H]4[C@@]5(C)CCCNC(C)(C)[C@@H]5CC[C@]43C)[C@H]12

>  <testSystem>
NCI-H460 lung

>  <assignedClass>
inactive

$$$$

Q: I would be grateful if you could indicate the recorded call for "O=C(N=c1n(-c2ccccc2)nc2n1CCN2C1=NCCN1)c1ccc(Cl)cc1" .
Result: inactive

====

System: MCF7 breast
Assay: NCI-60 one-dose screen, 48 h (100 = growth as untreated, 0 = no growth, -100 = all killed)
Details: 10 µM unless noted
Compounds without any hit were thinned out: in the full panel of roughly 83,000, 20% have a hit. Active and inactive are the calls of the source. The calls were made as follows: active = growth percent below 10; inactive = the rest.
propertyMeasured: growth

>  <molecule>
COc1ccc2c3ccnc(C(F)(F)F)c3n(CCCCN)c2c1

>  <growth>
35.5% (inactive)

$$$$
>  <molecule>
N#CC1C(=O)NC(c2ccccc2[N+](=O)[O-])c2sc3c(F)cccc3c21 (centres undefined)

>  <growth>
23.4% (inactive)

$$$$
>  <molecule>
O=C(CCN1CCCCC1)c1ccc(Cl)cc1

>  <growth>
91.8% (inactive)

$$$$
>  <molecule>
O=C1CC(c2ccccc2)Cc2nc3ccc(Cl)cc3cc21 (centres undefined)

>  <growth>
54% (inactive)

$$$$
>  <molecule>
COc1ccc(C(C(=O)O)c2ccc(OC)cc2)cc1

>  <growth>
101% (inactive)

$$$$
>  <molecule>
CCCCNC(=O)NS(=O)(=O)Cc1ccccc1

>  <growth>
96.6% (inactive)

$$$$

Q: I am curious: what growth value has been reported for "C=C(C)[C@@H]1CC[C@]2(C(N)=O)CC[C@]3(C)[C@H](CC[C@@H]4[C@@]5(C)C/C(=C/c6cccnc6)C(=O)C(C)(C)[C@@H]5CC[C@]43C)[C@@H]12" ?
Result: 10.8% [100 µM] (inactive)

Q: I am curious: what growth value has been reported for "Cc1ccc(-c2cc(O)c(-c3ccc(C)cc3C)cc2O)c(C)c1" ?
Result: 49.2% (inactive)

Q: I am curious: what growth value has been reported for "C=C(C)[C@@H]1CC[C@]2(C(=O)N3CCN(C)CC3)CC[C@]3(C)[C@H](CC[C@@H]4[C@@]5(C)C/C(=C/c6ccncc6)[C@H](O)C(C)(C)[C@@H]5CC[C@]43C)[C@@H]12" ?
Result: -60.6% [100 µM] (active)

====

System: T-47D breast
Assay: NCI-60 one-dose screen, 48 h (100 = growth as untreated, 0 = no growth, -100 = all killed)
Details: 10 µM unless noted
About 83,000 compounds went through this panel and 20% of them were active in at least one assay; those are over-represented in the sample as a whole. The source made the active and inactive calls. The calls were made as follows: active = growth percent below 10; inactive = the rest.
Below, each of the compounds is paired with its reported growth value.

Q: I am curious: what growth value has been reported for "CC(C)=CC/C=C(/C)[C@H]1CC[C@]2(C)[C@@H]1CC[C@@H]1[C@@]3(C)CC/C(=N/O)C(C)(C)[C@@H]3CC[C@]12C" ?
Result: 27.2% [100 µM] (inactive)

Q: I am curious: what growth value has been reported for "CCCCNC(=O)NS(=O)(=O)Cc1ccccc1" ?
Result: 113% (inactive)

Q: I am curious: what growth value has been reported for "c1coc2occoc=2o1" ?
Result: 98% (inactive)

Q: I am curious: what growth value has been reported for "O=C(O)c1cccc(CN2CCN(c3cc4c(cc3F)c(=O)c(C(=O)O)cn4C3CC3)CC2)c1O" ?
Result: 96.6% (inactive)

Q: I am curious: what growth value has been reported for "N#C/C(=C(/O)CCCO)c1nc2ccccc2c(=O)[nH]1" ?
Result: 101% (inactive)

Q: I am curious: what growth value has been reported for "CCn1cc(-c2cc(-c3ccc(Cl)cc3)nc(N)n2)c(-c2ccc(Br)cc2)n1" ?
Result: 48.1% (inactive)

Q: I am curious: what growth value has been reported for "CC(C)OC(=O)Nc1cc(F)ccc1F" ?
Result: 94.8% (inactive)

Q: I am curious: what growth value has been reported for "O=[N+]([O-])c1cc(CCl)ccc1OCCBr" ?
Result: 88.3% (inactive)

Q: I am curious: what growth value has been reported for "O=C1Nc2ccccc2/C1=C/C(=O)c1ccc(N2CCOCC2)cc1" ?
Result: 81.1% (inactive)

Q: I am curious: what growth value has been reported for "CCCCCCCCCCCCCC[n+]1cccc(C(N)=O)c1" ?
Result: 49.8% (inactive)

Q: I am curious: what growth value has been reported for CCN(CC)CC(C)Nc1ccc(C)c2sc3ccccc3c(=O)c12 (stereo unspecified) ?
Result: 53.6% (inactive)

====

Test system: HT29 colon
Experiment: NCI-60 one-dose screen, 48 h (100 = growth as untreated, 0 = no growth, -100 = all killed)
Details: 10 µM unless noted
This is part of a sample that, as a whole, favours compounds with a hit. Of some 83,000 tested, about 20% had one in any assay.
propertyMeasured: growth (%)
Kindly answer with a numeric value in %, unit omitted.

Worked examples follow.
>  <compound>
CC1(C)C(=NO)C(C)(C)C1=NO

>  <growth (%)>
105

$$$$
>  <compound>
O=C1COCCN1c1ccc(NCc2cn(Cc3ccccc3)c3ccccc23)cc1

>  <growth (%)>
109

$$$$
>  <compound>
COc1cc(-c2nc(SCCC(C)C)nc(Nc3ccc(S(N)(=O)=O)cc3)c2C#N)cc(OC)c1OC

>  <growth (%)>
2.83

$$$$
>  <compound>
O=C1NC(=O)C(Cc2ccccc2)(Cc2ccccc2)N1

>  <growth (%)>
94.1

$$$$
>  <compound>
Nc1cc(Cl)cc2cccnc12

>  <growth (%)>
101

$$$$

Q: I am curious: what growth value has been reported for "O=C(O)c1cn(C2CC2)c2cc(N3CCN(Cc4c(O)ccc5ccccc45)CC3)c(F)cc2c1=O" ?
Result: -46.7

Q: I am curious: what growth value has been reported for "Cc1ccc(NC(=O)N[C@@H](Cc2cc(F)cc(F)c2)C(=O)N[C@@H]2C(=O)N3CCC[C@H]3C(=O)N3CCCC[C@H]3C(=O)N[C@@H](C)C(=O)N3C[C@H](C)C[C@H]3C(=O)O[C@H]2C)cc1" ?
Result: 30.3

Q: I am curious: what growth value has been reported for CCOc1cccc2c(NC(C)CCCN(CC)CC)c(C)cnc12 (stereo unspecified) ?
Result: 85.1

Q: I am curious: what growth value has been reported for "O=C1COCCN1c1ccc(NCc2cn(Cc3cccc4ccccc34)c3ccccc23)cc1" ?
Result: 97.7

Q: I am curious: what growth value has been reported for "CNc1cc(C(=O)O)nc(NC)n1" ?
Result: 104

Q: I am curious: what growth value has been reported for CC1(C)OC2[C@@H](CNC(=O)NC(=O)NC(=O)CI)O[C@@H](n3cnc4c(NC(=O)Nc5ccccc5)ncnc43)[C@H]2O1 (stereo partly specified) ?
Result: 9.35

Q: I am curious: what growth value has been reported for "O=C(N/N=C\c1cc(Cl)ccc1O)N/N=C/c1cc(Cl)ccc1O" ?
Result: 93.9

Q: I am curious: what growth value has been reported for "COc1ncnc2c(-c3ccccc3)cn(COCc3ccccc3)c12" ?
Result: 47.8

Q: I am curious: what growth value has been reported for "CC(=O)O.CC(=O)O.O.[Fe]" ?
Result: 98.7

Q: I am curious: what growth value has been reported for "O=C(NCc1ccccc1)C(Cl)Cl" ?
Result: 99.2

Q: I am curious: what growth value has been reported for "Nc1nc(SCc2cccc([N+](=O)[O-])c2)c2[nH]cnc2n1" ?
Result: 98.4

Q: I am curious: what growth value has been reported for "COc1cc2c(c(Br)c1N)-c1cc(Br)c(N)cc1C2=O" ?
Result: 86.2

Q: I am curious: what growth value has been reported for C=CCCC1(C)NC(=O)NC1=O (stereo unspecified) ?
Result: 93.2

Q: I am curious: what growth value has been reported for "c1cc2ccc1CNCCN1CCNCc3ccc(cc3)Oc3ccc(cc3)CNCCN(CCNCc3ccc(cc3)O2)CCNCc2ccc(cc2)Oc2ccc(cc2)CNCC1" ?
Result: -74.7

Q: I am curious: what growth value has been reported for "Cc1cc2c(C(C)C)c(O)c(O)c(C=NCc3ccoc3)c2c(O)c1-c1c(C)cc2c(C(C)C)c(O)c(O)c(C=NCc3ccco3)c2c1O" ?
Result: 31.2

Q: I am curious: what growth value has been reported for "CCOC(=O)CCC[P+](c1ccccc1)(c1ccccc1)c1ccccc1" ?
Result: 70.2

====

Tested on: MDA-MB-435 melanoma
Assay: NCI-60 one-dose screen, 48 h
Conditions: 10 µM unless noted
The panel holds about 83,000 compounds, 20% with a hit somewhere; the sample as a whole holds those more often. The source made the active and inactive calls. How the source made its calls: active means growth percent below 10; inactive means the rest.
Valid outcomes are listed here; reply with one: TRUE (active), FALSE (inactive)

Example entries and their recorded answers appear below.
>  <molSmiles>
Cn1cc(-c2nnc(-c3cn(C)c4ncccc34)o2)c2ccccc21

>  <assignedClass>
TRUE

$$$$
>  <molSmiles>
CC(C)(C)c1cc(C(=O)Nc2cc3ccccc3cc2C(=O)NCCN)cc(C(C)(C)C)c1

>  <assignedClass>
TRUE

$$$$
>  <molSmiles>
COCc1nc2ccccc2[nH]1

>  <assignedClass>
FALSE

$$$$
>  <molSmiles>
C=C(CN=[N+]=[N-])[C@@H]1CC[C@]2(C)[C@H](CC[C@@H]3[C@H]4[C@H]5OC(=O)[C@@]4(CCC5(C)C)CC[C@]32C)[C@@]1(C)CCC#N

>  <assignedClass>
FALSE

$$$$
>  <molSmiles>
CN(C)Cc1ccc[nH]1

>  <assignedClass>
FALSE

$$$$

Q: I would be grateful if you could indicate the recorded call for "COc1ccc(OC)c([N+](=O)[O-])c1C(=O)CNC(C)=O" .
Result: FALSE

Q: I would be grateful if you could indicate the recorded call for "Oc1cc(Nc2ccnc3cc(Cl)ccc23)c2ncccc2c1" .
Result: FALSE

Q: I would be grateful if you could indicate the recorded call for "CNc1cc(C(=O)O)nc(NC)n1" .
Result: FALSE

Q: I would be grateful if you could indicate the recorded call for "C[C@H]1[C@H](C)CC[C@]2(C(=O)O)CC[C@]3(C)C(=CC[C@@H]4[C@@]5(C)C/C(=C/c6cccnc6)[C@H](O)C(C)(C)[C@@H]5CC[C@]43C)[C@H]12" .
Result: TRUE

Q: I would be grateful if you could indicate the recorded call for "Cc1cccc(C[C@H](NC(=O)Nc2ccc(Cl)cc2F)C(=O)N[C@@H]2C(=O)N3C[C@H](O)C[C@H]3C(=O)N3CCCC[C@H]3C(=O)N[C@@H](C)C(=O)N3C[C@H](C)C[C@H]3C(=O)O[C@H]2C)c1" .
Result: TRUE

Q: I would be grateful if you could indicate the recorded call for "O=C(CCN1CCCCC1)c1ccc2ccccc2c1" .
Result: FALSE
